# Ratio Ki per record follows
target: Adenosine A2 receptor (Homo sapiens) (UniProt P29275+P29274); test: Selectivity of adenosine A2A receptor over adenosine A2B receptor; format: protein assay
Note: the reply should be a number with no unit written.

CCCn1c(=O)c2nc(-c3cnn(Cc4nc(-c5ccccc5)no4)c3)[nH]c2n(CCC)c1=O :: 1100

Consider now this further compound.
Incoming: Provide only the value of recorded Ratio Ki for CCCn1c(=O)c2nc(-c3cnn(Cc4cc(-c5ccc(Cl)cc5)on4)c3)[nH]c2n(CCC)c1=O
Outgoing: 14

====

target: Adenosine A2 receptor (Homo sapiens) (UniProt P29275+P29274); experiment: Selectivity of adenosine A2A receptor over adenosine A2B receptor; assay type: protein assay
Property name: Ratio Ki

Solved cases (6 shown):
CCCn1c(=O)c2nc(-c3cnn(Cc4noc(-c5ccc(OC)cc5)n4)c3)[nH]c2n(CCC)c1=O :: > 40
CCCn1c(=O)c2nc(-c3cnn(Cc4noc(-c5ccc(C#N)cc5)n4)c3)[nH]c2n(CCC)c1=O :: > 357
CCCn1c(=O)c2nc(-c3cnn(Cc4nc(-c5ccc(C)cc5)no4)c3)[nH]c2n(CCC)c1=O :: 55
CCCn1c(=O)c2nc(-c3cnn(Cc4noc(-c5cccc(Cl)c5)n4)c3)[nH]c2n(CCC)c1=O :: > 37
CCCn1c(=O)c2[nH]c(-c3cnn(Cc4noc(-c5ccccc5)n4)c3)nc2n(CCC)c1=O :: 85
CCCn1c(=O)c2nc(-c3cnn(Cc4noc(-c5ccccc5OC)n4)c3)[nH]c2n(CCC)c1=O :: 40

Incoming: For Adenosine A2 receptor (Homo sapiens) (UniProt P29275+P29274), give Ratio Ki of the listed molecule: CCCn1c(=O)c2nc(-c3cnn(Cc4cc(-c5cccc(Cl)c5)on4)c3)[nH]c2n(CCC)c1=O
Outgoing: > 30

Incoming: Given CCCn1c(=O)c2nc(-c3cnn(Cc4nc(-c5cccc(Cl)c5)no4)c3)[nH]c2n(CCC)c1=O , report its Ratio Ki on Adenosine A2 receptor (Homo sapiens) (UniProt P29275+P29274).
Outgoing: > 156

Incoming: Jot down Ratio Ki (Adenosine A2 receptor (Homo sapiens) (UniProt P29275+P29274)) of CCCn1c(=O)c2nc(-c3cnn(Cc4cc(-c5ccccc5OC)on4)c3)[nH]c2n(CCC)c1=O .
Outgoing: > 25

Incoming: For Adenosine A2 receptor (Homo sapiens) (UniProt P29275+P29274), give the measured Ratio Ki of the entry CCCn1c(=O)c2nc(-c3cnn(Cc4nc(-c5ccc(C#N)cc5)no4)c3)[nH]c2n(CCC)c1=O
Outgoing: > 277

Incoming: State, for Adenosine A2 receptor (Homo sapiens) (UniProt P29275+P29274), measured Ratio Ki of the molecule listed here: CCCn1c(=O)c2nc(-c3cnn(Cc4nc(-c5ccccc5C(F)(F)F)no4)c3)[nH]c2n(CCC)c1=O
Outgoing: > 67

Incoming: Output reported Ratio Ki of the molecule CCCn1c(=O)c2nc(-c3cnn(Cc4cc(-c5cccc(OC)c5)on4)c3)[nH]c2n(CCC)c1=O on Adenosine A2 receptor (Homo sapiens) (UniProt P29275+P29274).
Outgoing: > 38

Incoming: Name the recorded Ratio Ki of CCCn1c(=O)c2nc(-c3cnn(Cc4nc(-c5ccccc5OC)no4)c3)[nH]c2n(CCC)c1=O , assay system Adenosine A2 receptor (Homo sapiens) (UniProt P29275+P29274).
Outgoing: 19

Incoming: Supply Ratio Ki measured with Adenosine A2 receptor (Homo sapiens) (UniProt P29275+P29274) for CCCn1c(=O)c2nc(-c3cnn(Cc4cc(-c5ccc(OC)cc5)on4)c3)[nH]c2n(CCC)c1=O .
Outgoing: > 79

====

target: Adenosine receptors; A2b & A3 (Homo sapiens) (UniProt P29275+P0DMS8); experiment: Selectivity of adenosine A3 receptor over adenosine A2B receptor; type: protein assay
Property name: Ratio Ki
Answer field: number only, no words.

CCCn1c(=O)c2nc(-c3cnn(Cc4nc(-c5ccc(C)cc5)no4)c3)[nH]c2n(CCC)c1=O :: 160
CCCn1c(=O)c2nc(-c3cnn(Cc4noc(-c5cccc(C(F)(F)F)c5)n4)c3)[nH]c2n(CCC)c1=O :: 27
CCCn1c(=O)c2nc(-c3cnn(Cc4nc(-c5ccccc5Cl)no4)c3)[nH]c2n(CCC)c1=O :: 25
CCCn1c(=O)c2nc(-c3cnn(Cc4nc(-c5ccccc5OC)no4)c3)[nH]c2n(CCC)c1=O :: 5
CCCn1c(=O)c2nc(-c3cnn(Cc4nc(-c5ccccc5C(F)(F)F)no4)c3)[nH]c2n(CCC)c1=O :: 4
CCCn1c(=O)c2nc(-c3cnn(Cc4nc(-c5ccc(C#N)cc5)no4)c3)[nH]c2n(CCC)c1=O :: 53
CCCn1c(=O)c2nc(-c3cnn(Cc4noc(-c5cccc(Cl)c5)n4)c3)[nH]c2n(CCC)c1=O :: 22
CCCn1c(=O)c2nc(-c3cnn(Cc4cc(-c5ccc(Cl)cc5)on4)c3)[nH]c2n(CCC)c1=O :: 40

Incoming: Query Ratio Ki for CCCn1c(=O)c2nc(-c3cnn(Cc4noc(-c5ccc(C(F)(F)F)cc5)n4)c3)[nH]c2n(CCC)c1=O
Outgoing: 61

Incoming: // Input: CCCn1c(=O)c2nc(-c3cnn(Cc4noc(-c5ccccc5Cl)n4)c3)[nH]c2n(CCC)c1=O . Output its Ratio Ki only.
Outgoing: 9

Incoming: Give me measured Ratio Ki, please, for this compound: CCCn1c(=O)c2nc(-c3cnn(Cc4cc(-c5ccccc5Cl)on4)c3)[nH]c2n(CCC)c1=O
Outgoing: 20

Incoming: Report measured Ratio Ki; entry is CCCn1c(=O)c2nc(-c3cnn(Cc4cc(-c5ccccc5C(F)(F)F)on4)c3)[nH]c2n(CCC)c1=O
Outgoing: 34

Incoming: Please give the documented Ratio Ki of CCCn1c(=O)c2nc(-c3cnn(Cc4cc(-c5ccc(OC)cc5)on4)c3)[nH]c2n(CCC)c1=O
Outgoing: 48

Incoming: Output Ratio Ki of CCCn1c(=O)c2nc(-c3cnn(Cc4cc(-c5ccc(C(F)(F)F)cc5)on4)c3)[nH]c2n(CCC)c1=O
Outgoing: 25

====

target: Adenosine A2 receptor (Homo sapiens) (UniProt P29275+P29274); assay: Selectivity of adenosine A2A receptor over adenosine A2B receptor; type: protein assay
Property name: Ratio Ki

Below, each entry is followed by its recorded Ratio Ki result.
CCCn1c(=O)c2nc(-c3cnn(Cc4nc(-c5cccc(OC)c5)no4)c3)[nH]c2n(CCC)c1=O :: > 60
CCCn1c(=O)c2nc(-c3cnn(Cc4cc(-c5ccccc5Cl)on4)c3)[nH]c2n(CCC)c1=O :: 24
CCCn1c(=O)c2nc(-c3cnn(Cc4noc(-c5ccc(C(F)(F)F)cc5)n4)c3)[nH]c2n(CCC)c1=O :: > 238

Incoming: Find the measured Ratio Ki of CCCn1c(=O)c2nc(-c3cnn(Cc4nc(-c5ccccc5Cl)no4)c3)[nH]c2n(CCC)c1=O and report it.
Outgoing: 130

Incoming: Let me know recorded Ratio Ki for CCCn1c(=O)c2nc(-c3cnn(Cc4nc(-c5cccc(C(F)(F)F)c5)no4)c3)[nH]c2n(CCC)c1=O , thanks.
Outgoing: > 119

Incoming: Provide only the value of recorded Ratio Ki for CCCn1c(=O)c2nc(-c3cnn(Cc4nc(-c5ccc(Cl)cc5)no4)c3)[nH]c2n(CCC)c1=O
Outgoing: 85

Incoming: Identify Ratio Ki associated with the molecule CCCn1c(=O)c2nc(-c3cnn(Cc4cc(-c5ccc(C(F)(F)F)cc5)on4)c3)[nH]c2n(CCC)c1=O
Outgoing: 35

Incoming: Query Ratio Ki for CCCn1c(=O)c2nc(-c3cnn(Cc4noc(-c5ccc(Cl)cc5)n4)c3)[nH]c2n(CCC)c1=O
Outgoing: > 128

====

molecular target: Adenosine receptors; A2b & A3 (Homo sapiens) (UniProt P29275+P0DMS8); assay: Selectivity of adenosine A3 receptor over adenosine A2B receptor; type: protein assay
Property name: Ratio Ki
Field format: numeric only.

CCCn1c(=O)c2nc(-c3cnn(Cc4noc(-c5ccc(OC)cc5)n4)c3)[nH]c2n(CCC)c1=O :: 19

Incoming: Identify the reported Ratio Ki for the following entry. CCCn1c(=O)c2nc(-c3cnn(Cc4nc(-c5cccc(OC)c5)no4)c3)[nH]c2n(CCC)c1=O
Outgoing: 7

Incoming: For the compound CCCn1c(=O)c2nc(-c3cnn(Cc4nc(-c5ccc(OC)cc5)no4)c3)[nH]c2n(CCC)c1=O , report Ratio Ki.
Outgoing: 14

Incoming: Please report the measured Ratio Ki for CCCn1c(=O)c2nc(-c3cnn(Cc4cc(-c5cccc(Cl)c5)on4)c3)[nH]c2n(CCC)c1=O
Outgoing: 27

Incoming: // Input: CCCn1c(=O)c2nc(-c3cnn(Cc4noc(-c5cccc(OC)c5)n4)c3)[nH]c2n(CCC)c1=O . Output its Ratio Ki only.
Outgoing: 15

Incoming: Please give measured Ratio Ki of the following entry: CCCn1c(=O)c2nc(-c3cnn(CC(=O)Nc4ccccc4Cl)c3)[nH]c2n(CCC)c1=O
Outgoing: 54

Incoming: Identify the reported Ratio Ki for the following entry. CCCn1c(=O)c2nc(-c3cnn(Cc4noc(-c5ccccc5C(F)(F)F)n4)c3)[nH]c2n(CCC)c1=O
Outgoing: 6

Incoming: Retrieve Ratio Ki measured for CCCn1c(=O)c2nc(-c3cnn(Cc4nc(-c5ccccc5)no4)c3)[nH]c2n(CCC)c1=O and print it.
Outgoing: 480

Incoming: Assign Ratio Ki to the following record: CCCn1c(=O)c2[nH]c(-c3cnn(Cc4noc(-c5ccccc5)n4)c3)nc2n(CCC)c1=O
Outgoing: 30

Incoming: Determine from records and report Ratio Ki for CCCn1c(=O)c2nc(-c3cnn(Cc4nc(-c5ccc(C(F)(F)F)cc5)no4)c3)[nH]c2n(CCC)c1=O
Outgoing: 23

Source listed as ChEMBL document CHEMBL1147761.
